Test system: TK-10 renal
assay-name: NCI tumour cell line growth inhibition, 48 h
observation-type: TGI

Study these solved cases before continuing.
>  <compound>
CNC(=O)c1cncc(/C=C/c2ccccc2C)c1

>  <TGI>
> 25 µM

$$$$
>  <compound>
COc1ccc2c(c1)C(O)(C(F)(F)F)c1cc(C(=O)C(F)(F)F)c3ccccc3c1N2 (centres undefined)

>  <TGI>
27.4 µM

$$$$
>  <compound>
COC(=O)c1csnn1

>  <TGI>
> 100 µM

$$$$

Turning now to a further compound:
input: Look up TGI for this compound: COC(=O)c1ccccc1/C=C1/Cc2ccccc2C1=O
output: > 100 µM

###

Tested on: HOP-62 NSCLC
assay-name: NCI tumour cell line growth inhibition, 48 h
observation-type: TGI

Study these solved cases before continuing.
>  <compound>
CCCc1[nH]nc(CCC(=O)N(Cc2ccccc2)Cc2ccccc2)c1CC

>  <TGI>
> 100 µM

$$$$
>  <compound>
C/C(=N/NC(N)=S)c1ccc2ccccc2c1

>  <TGI>
> 100 µM

$$$$
>  <compound>
C[n+]1c(-c2ccccc2)cc2/c(=C\c3ccc([N+](=O)[O-])cc3)c3ccccc3n21

>  <TGI>
19.3 µM

$$$$

Turning now to a further compound:
input: Look up TGI for this compound: O=C(Cn1ccc(=O)[nH]c1=O)Nc1ccc(C(=O)O)c(O)c1
output: > 100 µM

###

# TGI annotations
Test system: OVCAR-8 ovarian
assay-name: NCI tumour cell line growth inhibition, 48 h
Could you give me the number in µM? Just the number is fine.

Study these solved cases before continuing.
>  <compound>
O=C1c2ccccc2-c2c1c1ccccc1c(=O)n2CCCNCCCNCCCn1c2c(c3ccccc3c1=O)C(=O)c1ccccc1-2

>  <measured-target>
OVCAR-8 ovarian

>  <reading-unit>
µM

>  <TGI>
0.201

$$$$
>  <compound>
O=C(NC(Cc1c[nH]c2ccccc12)C(=O)O)/C(=C/c1ccccc1O)NC(=O)c1ccccc1 (centres undefined)

>  <measured-target>
OVCAR-8 ovarian

>  <reading-unit>
µM

>  <TGI>
28.9

$$$$
>  <compound>
CN(C)c1ccc(-c2c(C#N)c(S)n(NS(=O)(=O)c3ccccc3)c(=O)c2C#N)cc1

>  <measured-target>
OVCAR-8 ovarian

>  <reading-unit>
µM

>  <TGI>
56.8

$$$$
>  <compound>
O=[N+]([O-])C(=C(N1CCCCC1)N1CCCCC1)/C(Cl)=C(\Cl)Br

>  <measured-target>
OVCAR-8 ovarian

>  <reading-unit>
µM

>  <TGI>
35

$$$$

Turning now to a further compound:
input: Look up TGI for this compound: C/C(=C\c1ccccc1)C(=O)CCN1CCOCC1
output: 41.4

###

Tested on: SK-MEL-28 melanoma
assay-name: NCI tumour cell line growth inhibition, 48 h
observation-type: TGI (µM)
Could you give me the number in µM? Just the number is fine.

>  <chemical-structure>
CCN(CC)CCn1ccc(=O)c2cc3c(=O)ccn(CCN(CC)CC)c3c(C)c21

>  <TGI, µM>
35.1

$$$$

input: Look up TGI for this compound: COc1ccc(/C(=N/O)c2ccccc2-c2nc3ccccc3c(=O)n2-c2ccc(S(=O)(=O)Nc3ncccn3)cc2)cc1C
output: 23

###

System: KM20L2 colon
assay-name: NCI tumour cell line growth inhibition, 48 h
observation-type: TGI

Study these solved cases before continuing.
>  <molecule>
CC1=NCCc2c1[nH]c1cc(O)ccc21

>  <measured-target>
KM20L2 colon

>  <TGI>
> 100 µM

$$$$
>  <molecule>
COCOc1ccc(OC)cc1

>  <measured-target>
KM20L2 colon

>  <TGI>
> 100 µM

$$$$
>  <molecule>
C/C(=C\c1ccccc1)C(=O)CCN1CCOCC1

>  <measured-target>
KM20L2 colon

>  <TGI>
36.1 µM

$$$$
>  <molecule>
COc1cccc(NC(=O)CC(=O)N2N=C(N(CCC#N)c3ccc(Cl)cc3)CC2c2ccccc2)c1 (centres undefined)

>  <measured-target>
KM20L2 colon

>  <TGI>
> 100 µM

$$$$
>  <molecule>
CCC12C[N+]3([O-])CCc4c([nH]c5ccccc45)C(C(=O)OC)(c4cc5c(cc4OC)N(C)C4C(O)(C(=O)OC)C(OC(C)=O)C6(CC)C=CCN7CCC54C76)CC(C3)C1O2 (centres undefined)

>  <measured-target>
KM20L2 colon

>  <TGI>
1.52 µM

$$$$

input: KM20L2 colon / TGI / C=C1C(=O)O[C@H]2[C@H]1[C@H](OC(=O)/C(C)=C\C)CC(=C)[C@@H]1[C@H](O)[C@H]3O[C@@]3(C)[C@@]12O : value?
output: > 100 µM

input: Also, CCCCCCCCCCCCOC(=S)NCCCC please.
output: 39.5 µM

input: Also, CN(C)C(CN)CC1=C(CC(CN)N(C)C)CCC1 (centres undefined) please.
output: > 100 µM

input: Also, COc1ccccc1NC(=O)C1=C(C)NC(C)=C(C(=O)Nc2ccccc2OC)C1c1ccccc1F please.
output: > 100 µM

input: Also, C=C1C(=O)OC2/C=C(\CO)C(OC(C)=O)CC(O)/C(C)=C/C(OC(=O)C(C)CC)C12 (centres undefined) please.
output: 58.6 µM

###

System: BT-549 breast
assay-name: NCI tumour cell line growth inhibition, 48 h
# TGI annotations

>  <compound>
CCN(CC)CCn1ccc(=O)c2cc3c(=O)ccn(CCN(CC)CC)c3c(C)c21

>  <TGI>
29.2 µM

$$$$
>  <compound>
O=C1CCSSCCC(=O)NCCN1

>  <TGI>
> 100 µM

$$$$
>  <compound>
CC(=O)NS(=O)(=O)c1ccc(NC(=O)c2c3ccccc3nc3ccccc23)cc1

>  <TGI>
> 100 µM

$$$$
>  <compound>
C=C(C)CCC(=O)[C@](C)(O)[C@H]1[C@H](O)C[C@@]2(C)[C@@H]3CCc4c(cc(OC5OC(CO)C(O)C(O)C5O)c(O)c4C)C3(C)C(=O)C[C@]12C (stereo not given in full)

>  <TGI>
> 100 µM

$$$$
>  <compound>
CCCN=Cc1cc(Cc2ccc(O)c(C=NCCC)c2)ccc1O

>  <TGI>
> 100 µM

$$$$

input: Look up TGI for this compound: COc1cc2c(cc1OCCCCOc1cc(-c3ccc(F)cc3)nc(C)n1)N=C[C@@H]1CCCN1C2=O
output: 2.28 µM

input: Also, O=C1c2ccccc2CN1c1ccc(O)cc1 please.
output: > 100 µM

input: Also, C=C1C(=O)OC2/C=C(\CO)C(OC(C)=O)CC(O)/C(C)=C/C(OC(=O)C(C)CC)C12 (stereo not given) please.
output: 36.9 µM

input: Also, CC1SC(c2c(Cl)cccc2Cl)N(NC(=O)c2[nH]c3ccc(F)cc3c2-c2ccccc2)C1=O (stereo not given) please.
output: 28.5 µM

input: Also, COc1c2c(c3c(c1CCC(=O)O)OC(C)(C)C=C3)OC(C)(C)C=C2 please.
output: > 100 µM

input: Also, CCCCCCCCCC[C@H](O)[C@H]1CC[C@H]([C@H]2CC[C@H]([C@H](O)CC[C@H](O)CCCCCCC[C@@H](O)CC3=C[C@H](C)OC3=O)O2)O1 please.
output: > 100 µM

input: Also, C=C1[C@@H](O)C[C@@]23CC[C@@H]4[C@@]5(C)CC[C@@H](OC(C)=O)C(C)(C)[C@@H]5C[C@@H](OC5OC(COC(C)=O)C(O)C(O)C5O)[C@@]4(C)C2=CC[C@H]3[C@H]1C (stereo not given in full) please.
output: 21.4 µM

input: Also, CCOP(=O)(OCC)C1C(CO)OC(n2ccc(=O)[nH]c2=O)C1O (stereo not given) please.
output: > 100 µM

###

Test system: HL-60(TB) leukemia
assay-name: NCI tumour cell line growth inhibition, 48 h
satisfied means recorded TGI is 7 µM or above; not satisfied means it is below 7 µM.

Solved entries:
>  <compound>
COc1ccc(-c2cc(=O)c3cc4c(cc3[nH]2)OCO4)c(OC)c1OC

>  <class-assignment>
satisfied

$$$$
>  <compound>
CC(=O)N/N=C1/NN(C(C)=O)C2(S1)C(=O)Nc1ccc(Br)cc12 (configuration not stated)

>  <class-assignment>
satisfied

$$$$
>  <compound>
CC(C)=CCc1c2c(c3occ(-c4ccc(O)c(O)c4)c(=O)c3c1O)C=CC(C)(C)O2

>  <class-assignment>
not satisfied

$$$$
>  <compound>
O=C(Nc1cccc2cnccc12)c1cc2c(cc1Cl)Sc1nccn1S2(=O)=O

>  <class-assignment>
satisfied

$$$$
>  <compound>
COCOc1ccc(OC)cc1

>  <class-assignment>
satisfied

$$$$
>  <compound>
CC(C)C(=O)Nc1nc2nc[nH]c2c(=O)[nH]1

>  <class-assignment>
satisfied

$$$$

input: Is the recorded value of TGI equal to or greater than 7 µM for this compound? CCN(CC)S(=O)(=O)c1ccc(OC)c(Nc2ncc(-c3ccccc3)o2)c1
output: satisfied

input: Also, COC1(C(=O)N[C@@H](C)c2ccc(-n3cc(F)cn3)nc2)CCC(c2nc(C)cc(Nc3cc(C)[nH]n3)n2)CC1 (some centres not stated) please.
output: satisfied

input: Also, Cc1ccc(S(=O)(=O)N2CCSCCSCCSCCSCC2)cc1 please.
output: satisfied

input: Also, COc1ccc(-c2ccc(/C=N/n3c(COc4ccc(Cl)cc4Cl)n[nH]c3=S)o2)c([N+](=O)[O-])c1 please.
output: satisfied
